Tested on: SW-620
ASSAY_SUMMARY: Cytotoxicity against human SW620 cells after 72 hrs by MTT assay
Assay type: functional, cell-based
ASSAY_SETUP: SW-620, 72 h
pIC50: −log10 of the molar value.
# pIC50 values compiled below
READOUT: pIC50

| MOL_SMILES | QUALIFIER_SYMBOL | VALUE |
| --- | --- | --- |
| COc1cc(/C=C2\CCC/C(=C\c3ccc(OC)c(OC)c3)C2=O)ccc1O | = | 5.35 |
| COc1ccc(/C=C2\CCC/C(=C\c3ccccc3Br)C2=O)cc1OC | = | 5.28 |
| COc1ccc(/C=C2\CCC/C(=C\c3cccc(OC)c3OC)C2=O)cc1OC | = | 5.19 |
| COc1ccc(/C=C2\CCC/C(=C\c3cccc(O)c3)C2=O)cc1OC | = | 5.72 |
| COc1ccc(/C=C2\CCC/C(=C\c3ccc(Cl)cc3)C2=O)cc1OC | = | 5.23 |
| COc1ccccc1/C=C1\CCC/C(=C\c2cccc(OC)c2OC)C1=O | < | 4.70 |
| COc1ccc(/C=C2\CCC/C(=C\c3ccccc3Cl)C2=O)cc1OC | = | 5.15 |
| COc1cccc(/C=C2\CCC/C(=C\c3ccc(O)cc3)C2=O)c1OC | < | 4.70 |
| COc1ccc(/C=C2\CCC/C(=C\c3ccc(O)cc3)C2=O)cc1OC | = | 5.11 |
| COc1cccc(/C=C2\CCC/C(=C\c3cc(Cl)cc(Cl)c3)C2=O)c1OC | = | 5.26 |

* * *

Test system: HT-1080
ASSAY_SUMMARY: Cytotoxicity against human HT1080 cells assessed as inhibition of cell proliferation at 20 uM after 72 hrs by MTT assay relative to control
Format: functional
ASSAY_SETUP: HT-1080, 72 h
# inhibition at 20 µM values compiled below
READOUT: inhibition at 20 µM

| MOL_SMILES | READOUT | VALUE |
| --- | --- | --- |
| COc1ccc(/C=C2\CCC/C(=C\c3ccc(Br)cc3)C2=O)cc1OC | inhibition at 20 µM | > 50% |
| COc1ccc(/C=C2\CCC/C(=C\c3cccc(Cl)c3)C2=O)cc1OC | inhibition at 20 µM | > 50% |
| COc1cccc(/C=C2\CCC/C(=C\c3ccc(O)c(Cl)c3)C2=O)c1OC | inhibition at 20 µM | > 50% |
| COc1ccccc1/C=C1\CCC/C(=C\c2ccc(OC)c(OC)c2)C1=O | inhibition at 20 µM | > 50% |
| COc1cccc(/C=C2\CCC/C(=C\c3cccc(O)c3)C2=O)c1OC | inhibition at 20 µM | > 50% |
| COc1cccc(/C=C2\CCC/C(=C\c3ccc(Cl)cc3Cl)C2=O)c1OC | inhibition at 20 µM | > 50% |
| COc1ccccc1/C=C1\CCC/C(=C\c2cccc(OC)c2OC)C1=O | inhibition at 20 µM | > 50% |
| COc1cccc(/C=C2\CCC/C(=C\c3ccc(Cl)c(Cl)c3)C2=O)c1OC | inhibition at 20 µM | > 50% |
| COc1ccc(/C=C2\CCC/C(=C\c3ccc(OC)c(OC)c3)C2=O)c(OC)c1 | inhibition at 20 µM | > 50% |
| COc1ccc(/C=C2\CCC/C(=C\c3ccccc3Cl)C2=O)cc1OC | inhibition at 20 µM | > 50% |

* * *

Tested on: A549
ASSAY_SUMMARY: Cytotoxicity against human A549 cells after 72 hrs by MTT assay
Type: functional, cell-based
ASSAY_SETUP: A549, 72 h
READOUT: IC50 (µM)

| MOL_SMILES | UNIT_INFO | QUALIFIER_SYMBOL | VALUE |
| --- | --- | --- | --- |
| COc1cccc(/C=C2\CCC/C(=C\c3cccc(OC)c3OC)C2=O)c1 | µM | = | 16.4 |
| COc1ccc(/C=C2\CCC/C(=C\c3cccc(Br)c3)C2=O)cc1OC | µM | = | 12.8 |
| COc1cc(/C=C2\CCC/C(=C\c3ccc(OC)c(OC)c3)C2=O)ccc1O | µM | = | 10.3 |
| COc1ccc(/C=C2\CCC/C(=C\c3ccc(Cl)c(Cl)c3)C2=O)cc1OC | µM | = | 6.9 |
| COc1cccc(/C=C2\CCC/C(=C\c3ccccc3Br)C2=O)c1OC | µM | > | 20 |

* * *

Test system: A549
ASSAY_SUMMARY: Cytotoxicity against human A549 cells after 72 hrs by MTT assay
Format: functional, cell-based
ASSAY_SETUP: A549, 72 h
pIC50: −log10 of the molar value.

| MOL_SMILES | pIC50 |
| --- | --- |
| COc1cccc(/C=C2\CCC/C(=C\c3ccccc3Cl)C2=O)c1OC | < 4.70 |
| COc1cc(/C=C/C(=O)CC(=O)/C=C/c2ccc(O)c(OC)c2)ccc1O | 4.75 |
| COc1cccc(/C=C2\CCC/C(=C\c3cccc(Cl)c3Cl)C2=O)c1OC | < 4.70 |
| COc1ccc(/C=C2\CCC/C(=C\c3ccc(O)c(Cl)c3)C2=O)cc1OC | < 4.70 |
| COc1cc(/C=C2\CCC/C(=C\c3ccc(OC)c(OC)c3)C2=O)cc(OC)c1 | 5.29 |
| COc1cccc(/C=C2\CCC/C(=C\c3ccc(Br)cc3)C2=O)c1OC | < 4.70 |
| COc1ccc(/C=C2\CCC/C(=C\c3cccc(OC)c3OC)C2=O)cc1 | < 4.70 |
| COc1ccc(/C=C2\CCC/C(=C\c3ccc(O)c(O)c3)C2=O)cc1OC | < 4.70 |
| COc1cccc(/C=C2\CCC/C(=C\c3cc(Cl)cc(Cl)c3)C2=O)c1OC | 4.90 |
| COc1ccc(/C=C2\CCC/C(=C\c3ccc(Cl)cc3Cl)C2=O)cc1OC | < 4.70 |
| COc1ccc(/C=C2\CCC/C(=C\c3cccc(Cl)c3Cl)C2=O)cc1OC | < 4.70 |
| COc1cccc(/C=C2\CCC/C(=C\c3cccc(Br)c3)C2=O)c1OC | < 4.70 |
| COc1ccc(/C=C2\CCC/C(=C\c3cc(Cl)cc(Cl)c3)C2=O)cc1OC | 5.26 |
| COc1cccc(/C=C2\CCC/C(=C\c3cccc(O)c3)C2=O)c1OC | < 4.70 |
| COc1cc(/C=C2\CCC/C(=C\c3cccc(OC)c3OC)C2=O)cc(OC)c1 | 4.99 |
| COc1ccc(/C=C2\CCC/C(=C\c3cccc(Cl)c3)C2=O)cc1OC | 4.96 |
| COc1ccc(/C=C2\CCC/C(=C\c3cccc(O)c3)C2=O)cc1OC | 5.37 |
| COc1ccc(/C=C2\CCC/C(=C\c3cccc(OC)c3OC)C2=O)c(OC)c1 | < 4.70 |
| COc1ccccc1/C=C1\CCC/C(=C\c2ccc(OC)c(OC)c2)C1=O | < 4.70 |
| COc1cccc(/C=C2\CCC/C(=C\c3ccc(O)c(O)c3)C2=O)c1OC | < 4.70 |
| COc1ccc(/C=C2\CCC/C(=C\c3ccc(OC)c(OC)c3)C2=O)cc1OC | 5.07 |

* * *

# IC50 values compiled below
ASSAY_SUMMARY: Cytotoxicity against human EJ28 cells after 72 hrs by MTT assay
Assay type: functional, cell-based
ASSAY_SETUP: EJ-28, 72 h

| MOL_SMILES | QUALIFIER_SYMBOL | IC50 / µM |
| --- | --- | --- |
| COc1cccc(/C=C2\CCC/C(=C\c3cccc(OC)c3OC)C2=O)c1OC | = | 8.4 |
| COc1ccccc1/C=C1\CCC/C(=C\c2cccc(OC)c2OC)C1=O | = | 16.6 |
| COc1ccc(/C=C2\CCC/C(=C\c3ccccc3Cl)C2=O)cc1OC | = | 6.9 |
| COc1ccc(/C=C2\CCC/C(=C\c3cccc(O)c3)C2=O)cc1OC | = | 1.8 |
| COc1cccc(/C=C2\CCC/C(=C\c3ccc(Cl)cc3)C2=O)c1OC | = | 11 |
| COc1ccc(/C=C2\CCC/C(=C\c3cccc(Cl)c3Cl)C2=O)cc1OC | = | 10.4 |
| COc1cccc(/C=C2\CCC/C(=C\c3cccc(Cl)c3)C2=O)c1OC | = | 11.3 |
| COc1cccc(/C=C2\CCC/C(=C\c3cccc(OC)c3OC)C2=O)c1 | = | 10 |
| COc1cccc(/C=C2\CCC/C(=C\c3cc(Cl)cc(Cl)c3)C2=O)c1OC | = | 7.5 |
| COc1cccc(/C=C2\CCC/C(=C\c3ccc(OC)c(OC)c3)C2=O)c1 | = | 4.2 |
| COc1cccc(/C=C2\CCC/C(=C\c3cc(OC)c(OC)c(OC)c3)C2=O)c1OC | = | 2.4 |
| COc1ccc(/C=C2\CCC/C(=C\c3ccc(OC)c(OC)c3)C2=O)cc1 | = | 8.4 |
| COc1ccc(/C=C2\CCC/C(=C\c3cccc(Br)c3)C2=O)cc1OC | = | 4.9 |
| COc1ccc(/C=C2\CCC/C(=C\c3cc(Cl)cc(Cl)c3)C2=O)cc1OC | = | 4.2 |
| COc1ccc(/C=C2\CCC/C(=C\c3cccc(Cl)c3)C2=O)cc1OC | = | 5.4 |
| COc1ccc(/C=C2\CCC/C(=C\c3ccc(Cl)c(Cl)c3)C2=O)cc1OC | = | 3.4 |
| COc1cc(/C=C2\CCC/C(=C\c3cccc(OC)c3OC)C2=O)ccc1O | = | 10.6 |
| COc1ccc(/C=C2\CCC/C(=C\c3ccc(Cl)cc3)C2=O)cc1OC | = | 5.7 |
| COc1ccc(/C=C2\CCC/C(=C\c3cccc(OC)c3OC)C2=O)cc1OC | = | 6.6 |
| COc1cc(/C=C/C(=O)CC(=O)/C=C/c2ccc(O)c(OC)c2)ccc1O | = | 10.5 |
| COc1cccc(/C=C2\CCC/C(=C\c3ccc(O)c(O)c3)C2=O)c1OC | = | 6.4 |
| COc1ccc(/C=C2\CCC/C(=C\c3ccc(Br)cc3)C2=O)cc1OC | = | 7.1 |
| COc1ccc(/C=C2\CCC/C(=C\c3cccc(OC)c3OC)C2=O)c(OC)c1 | > | 20 |
| COc1ccc(/C=C2\CCC/C(=C\c3ccc(OC)c(OC)c3)C2=O)cc1OC | = | 3.5 |
| COc1cccc(/C=C2\CCC/C(=C\c3ccccc3Cl)C2=O)c1OC | = | 12 |
| COc1cc(/C=C2\CCC/C(=C\c3ccc(OC)c(OC)c3)C2=O)cc(OC)c1 | = | 3 |
| COc1ccc(/C=C2\CCC/C(=C\c3cc(OC)c(OC)c(OC)c3)C2=O)cc1OC | = | 1.7 |
| COc1ccc(/C=C2\CCC/C(=C\c3ccc(OC)c(OC)c3)C2=O)c(OC)c1 | > | 20 |
| COc1cccc(/C=C2\CCC/C(=C\c3ccc(O)c(Cl)c3)C2=O)c1OC | = | 18.3 |
| COc1ccc(/C=C2\CCC/C(=C\c3ccccc3Br)C2=O)cc1OC | = | 7.4 |
| COc1cc(/C=C2\CCC/C(=C\c3cccc(OC)c3OC)C2=O)cc(OC)c1 | = | 3.6 |
| COc1cccc(/C=C2\CCC/C(=C\c3ccc(Cl)cc3Cl)C2=O)c1OC | > | 20 |
| COc1ccc(/C=C2\CCC/C(=C\c3ccc(O)c(Cl)c3)C2=O)cc1OC | = | 8 |
| COc1cccc(/C=C2\CCC/C(=C\c3ccc(Cl)c(Cl)c3)C2=O)c1OC | = | 12.1 |
| COc1cccc(/C=C2\CCC/C(=C\c3cccc(Br)c3)C2=O)c1OC | = | 12.1 |
| COc1cccc(/C=C2\CCC/C(=C\c3ccc(O)cc3)C2=O)c1OC | > | 20 |

All figures here come from ChEMBL document CHEMBL4270616.
